# test.system: Diaphorase
# test.details: peptide array, 1 uM diaphorase, binding without FAD / with FAD
The entries below are paired with their reported noFAD/FAD.
observable: noFAD/FAD

>>> measurement("VKDGANKHYWRVSGSG")
0.18
>>> measurement("YRNAAWFSGGSG")
2.86
>>> measurement("YRFAQYKGQKDGSG")
2.78
>>> measurement("EDEGLSKFEGGSG")
0.135
>>> measurement("RFKYPLDGGSG")
2.62
>>> measurement("KEAPGPRFGGSG")
0.129
>>> measurement("LLGFLGGSG")
0.559
>>> measurement("YVWGLELSGGSG")
0.556

From: patent US20190064177A1
